Below are IC50 values measured for Cathepsin S (Homo sapiens, UniProt P25774).
reportedProperty: IC50 (µM)

A: COc1ccc(Nc2nc(C#N)nc(N3CCNCC3)n2)cc1
B: N#Cc1nc(Nc2cccc([N+](=O)[O-])c2)nc(NC2CCCCC2)n1
Asked: Select one. Lower IC50: A or B Please reply using the label of the selected record.
Given back: A

I: Cc1cccc(CNc2nc(C#N)nc(NC3CCCCC3)n2)c1
II: COc1ccc(Nc2nc(C#N)nc(NC3CCCCC3)n2)cc1
Asked: Select one. Lower IC50: I or II Please reply using the label of the selected record.
Given back: I
(I: 0.023 µM, II: 0.136 µM)

====

Target sequence: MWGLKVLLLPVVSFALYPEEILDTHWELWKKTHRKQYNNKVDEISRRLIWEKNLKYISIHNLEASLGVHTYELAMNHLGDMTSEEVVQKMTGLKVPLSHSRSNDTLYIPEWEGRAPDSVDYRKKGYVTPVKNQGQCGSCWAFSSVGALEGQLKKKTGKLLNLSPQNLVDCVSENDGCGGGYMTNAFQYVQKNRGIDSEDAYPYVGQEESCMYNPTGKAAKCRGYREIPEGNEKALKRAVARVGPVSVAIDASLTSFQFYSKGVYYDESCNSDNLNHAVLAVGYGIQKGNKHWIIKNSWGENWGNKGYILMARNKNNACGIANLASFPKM
pIC50: −log10 of the molar value.
reportedProperty: pIC50

Before answering, review these 4 worked examples.
In [3]: df
Out[3]:
                                   compound  reported
0  N#Cc1nc(Nc2cccc([N+](=O)[O-])c2)nc(N2CCNCC2)n1      7.77
1     COc1ccc(Nc2nc(C#N)nc(NC3CCCCC3)n2)cc1      7.64
2  N#Cc1nc(NC[C@H](O)c2ccccc2)nc(NC2CCCCC2)n1      7.15
3  N#Cc1nc(NC[C@H](O)c2ccccc2)nc(N2CCNCC2)n1      7.17

a: N#Cc1nc(Nc2ccc([N+](=O)[O-])cc2)nc(N2CCNCC2)n1
b: N#Cc1ccc(Nc2nc(C#N)nc(NC3CCCCC3)n2)cc1
c: N#Cc1nc(Nc2ccc(C(F)(F)F)cc2)nc(NC2CCCCC2)n1
Asked: Arrange by pIC50, high to low. Lab note: record answer as labels in requested order.
Given back: a, c, b

====

Below are IC50 values measured for Cathepsin S (Homo sapiens, UniProt P25774).
reportedProperty: IC50 (nM)

>>> print(df.to_string())
                              compound  displayunit  reported
0  N#Cc1nc(NCCc2ccccc2)nc(NC2CCCCC2)n1           nM        23

A: N#Cc1nc(Nc2ccc(C(F)(F)F)cc2)nc(N2CCNCC2)n1
B: N#Cc1nc(Nc2ccc(C(F)(F)F)cc2)nc(NC2CCCCC2)n1
Asked: Among A and B , which shows a numerically higher IC50 result? Please reply using the label of the selected record.
Given back: B
